# target: ROCK1 (Homo sapiens)
# Construct: GST-tagged 1–535 human ROCK1
# Sequence (Q13464 1-535): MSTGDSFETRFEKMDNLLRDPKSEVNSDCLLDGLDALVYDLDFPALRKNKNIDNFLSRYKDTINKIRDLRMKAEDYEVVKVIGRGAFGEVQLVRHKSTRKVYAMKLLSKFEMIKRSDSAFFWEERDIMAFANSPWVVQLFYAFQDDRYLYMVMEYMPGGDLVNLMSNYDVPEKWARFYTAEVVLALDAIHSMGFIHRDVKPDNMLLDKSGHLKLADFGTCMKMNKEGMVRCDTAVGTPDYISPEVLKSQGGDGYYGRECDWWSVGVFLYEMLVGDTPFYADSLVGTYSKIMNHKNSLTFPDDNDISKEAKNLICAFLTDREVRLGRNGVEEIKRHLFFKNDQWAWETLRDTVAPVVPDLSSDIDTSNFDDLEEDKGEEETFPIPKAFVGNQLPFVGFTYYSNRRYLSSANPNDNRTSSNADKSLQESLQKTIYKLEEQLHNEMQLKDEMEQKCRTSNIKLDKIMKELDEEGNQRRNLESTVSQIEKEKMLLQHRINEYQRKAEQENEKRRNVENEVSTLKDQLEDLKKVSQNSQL
# assayComment: ADP-Glo kinase assay with […] ATP; also KINOMEscan competition at […] ([…] CTRL)
# Format: biochemical
readoutName: IC50 (nM)

1. CCCN[C@H]1CCc2nc(NC(=O)c3cccc([C@@H](C)NC(=O)c4ccc(OC)c(OC)c4)c3)sc2C1 [compound 31] ... 2.9
